Measurement Notes: Phase 1 single ascending dose (SAD) pharmacokinetics incl. food effect
Assay type: in vivo, human
Condition Description: human, plasma, oral, 300 mg, Cohort 1, Regimen A, Fasted; geometric mean (geometric CV%)
Method: A randomized, double-blind, placebo-controlled Phase 1 trial (ClinicalTrials.gov identifier: NCT05484414) (02/08/2022) was conducted to assess the safety, tolerability, food effect, pharmacokinetics (PK), and pharmacodynamics (PD) of single and multiple ascending doses of SRP-001 (Quotient Sciences, Miami FL USA; Fig. 3h - k and Methods). […]
Readout Name: half-life (h)
Write the value in h as a bare number.

# query: half-life of entry "CCN(CC)C(=O)c1ccccc1S(=O)(=O)NCC(=O)Nc1ccc(O)cc1"
2.4
